Hi there, I'd appreciate the recorded solubility kinetic for every entry that follows.
Settings: buffer; pH 7.4; 200.0 µM

Lab book: solubility kinetic of `COc1ccc(NC(=O)CN(C)CC(=O)N2CC(=O)Nc3ccccc32)cc1` noted as > 57.4 µg/mL

Documented solubility kinetic of `O=Cc1c(Cl)nc2ccccn2c1=O` : > 31.3 µg/mL

Reported solubility kinetic ( `Cc1ccc(S(=O)(=O)NC2CCCCCC2)cc1` ) = > 40.1 µg/mL

`Cc1ccccc1Nc1nc(N)nc(CSc2nncn2C)n1` has a reported solubility kinetic of > 49.3 µg/mL

In plain terms, `CN1C(=O)C2(OCCCO2)c2cc(Cl)ccc21` has a documented solubility kinetic of > 38.1 µg/mL

So, `Nc1cc(N)nc(SCc2ccc(Cl)cc2)n1` ? Its solubility kinetic was > 40 µg/mL

---

Details: buffer; pH 7.4; 200.0 µM
Give measured solubility kinetic for each item. Keep answers brief.

Lab note: measured solubility kinetic of `O=C1[C@@H]2CSCN2C(=O)CN1Cc1ccc(F)cc1` was > 42 µg/mL

In plain terms, `O=S(=O)(NC(=S)c1ccccc1)c1ccc(Cl)cc1` has a documented solubility kinetic of > 46.8 µg/mL

For record `CN(C1CCCCC1)S(=O)(=O)c1cccc2nsnc12` the listed solubility kinetic is > 46.7 µg/mL

Sure, the documented solubility kinetic for `COC(=O)Cc1c(O)ccn(Cc2ccc(OC)c(OC)c2)c1=O` is > 50 µg/mL

So for `CNC(=O)c1oc(-c2ccccc2)nc1C` , the logged solubility kinetic turned out to be > 32.4 µg/mL

get_value(item= `Cc1nc(Nc2ccccc2)c2oc3ccc(Cl)cc3c2n1` , readout=solubility kinetic) returns < 0.2 µg/mL

Note to self: solubility kinetic recorded for `Cc1cccc(C(=O)OCCN2CCOCC2)c1.Cl` was > 42.9 µg/mL

Value of measured solubility kinetic for the entry `COc1ccc(CCNC(=O)COC(=O)Cc2ccccc2F)cc1` : > 51.8 µg/mL

---

Conditions: buffer; pH 7.4; 200.0 µM
So I've got a bunch of compounds here, and I need their solubility kinetic values.

Sure, the documented solubility kinetic for CC1CCCCC1NC(=O)Cn1cnc2c1c(=O)n(C)c(=O)n2C (centres undefined) is > 50 µg/mL

Documented solubility kinetic of `O=C(CCCc1ccccc1)Nc1ccc(Br)cc1F` : < 0.7 µg/mL

For this compound ( `CN(C)c1cccc(NC(=O)c2ccco2)c1` ), measured solubility kinetic is > 34.5 µg/mL

Per the records, this compound ( `CCOC1=CC(=O)N(Cc2ccccc2)C1` ) has solubility kinetic equal to > 32.6 µg/mL

---

Conditions: buffer; pH 7.4; 200.0 µM
What solubility kinetic was measured for each of the following?

In plain terms, `CC(=O)Nc1ccc(S(=O)(=O)NCc2ccc(C)n2C)cc1` has a documented solubility kinetic of > 48.2 µg/mL

solubility kinetic recorded for this molecule, `Cc1ccc(S(=O)(=O)CCSc2ccc(C(F)(F)F)cn2)cc1` , is < 0.8 µg/mL

Entry `Cc1n[nH]c(=S)n1-c1ccc(Cl)cc1` ; solubility kinetic = > 33.9 µg/mL

# solubility kinetic (molecule: `COC(=O)CN1CC(=O)N(c2ccccc2)C1=S` ) is > 39.6 µg/mL

---

Please go through the items and note down their solubility kinetic.
Details: buffer; pH 7.4; 200.0 µM

The molecule `CC(=O)Oc1ccc(C(=O)Nc2cccnc2)cc1` showed solubility kinetic equal to > 38.4 µg/mL

Looking up N#CCNC(=O)C1CC(=O)N(CCc2ccc(F)cc2)C1 (stereo not drawn) , I found its solubility kinetic recorded as 39.7 µg/mL

Value of measured solubility kinetic for the entry `N#Cc1cn(Cc2ccccc2)c(=O)[nH]c1=O` : > 34.1 µg/mL

---

I'd be grateful if you could share measured solubility kinetic for these entries.
Conditions: buffer; pH 7.4; 200.0 µM

Form field solubility kinetic, entry `O=C(O)c1ccccc1C(=O)Nc1ccc(Oc2ccccc2)cc1` : > 50 µg/mL

// recorded solubility kinetic for `COc1ccc(NC(=S)NC2CCCCC2)cn1` : > 39.8 µg/mL

Recorded result, `NC(=O)CN1C(=O)C(=O)N(Cc2ccccc2Cl)C1=O` , solubility kinetic: > 44.4 µg/mL

---

Exercise: state measured solubility kinetic for each of the compounds provided.
Settings: buffer; pH 7.4; 200.0 µM

solubility kinetic for `Cc1ccc(CNc2cccnc2)cc1` is > 29.7 µg/mL

Data point: `CC(=O)c1cccc(NC(=O)c2ccccc2-c2ccccc2C(=O)O)c1` ; solubility kinetic = > 53.9 µg/mL

Looking up `CN1CCN(C(=O)c2cc3ccccc3cc2O)CC1` , I found its solubility kinetic recorded as > 40.5 µg/mL

// solubility kinetic value for `Cc1ccc(C(=O)NCCCNC(=O)Cc2ccccc2)cn1` : > 46.7 µg/mL

The measured solubility kinetic associated with `COc1ccc(CC(=O)N/N=C/c2cccs2)cc1OC` reads > 45.7 µg/mL

Looking up `CC(=O)Nc1ccc(S(=O)(=O)N(C)CC(=O)N2CCN(C(=O)c3ccco3)CC2)cc1` , I found its solubility kinetic recorded as > 67.3 µg/mL

The value of solubility kinetic measured for the compound `CCc1nc(=O)c(-c2ccccc2)c(C)n1-c1ccccc1` turned out to be > 43.6 µg/mL

For this compound ( `c1ccc(-c2cc(-c3ccccc3)on2)cc1` ), measured solubility kinetic is < 0.5 µg/mL

response.value for `Cn1c(N)c(C(=O)CN2CCc3ccccc3C2)c(=O)n(C)c1=O` (field: solubility kinetic) = > 49.3 µg/mL

The compound Cc1cnc(C(=O)OC(C)C(=O)NCc2ccccc2)cn1 (stereo not given) showed solubility kinetic equal to > 44.9 µg/mL

Reported solubility kinetic for `O=C(c1cc2cc(F)ccc2[nH]1)N1CCc2ccccc21` was 1.4 µg/mL

# solubility kinetic of `CCCn1c(SCC(=O)N(CC)CC)nnc1-c1ccncc1` = > 50 µg/mL

Record `COc1ccccc1N1CCN(C(=O)c2c(-c3c(F)cccc3Cl)noc2C)CC1` , field solubility kinetic: 52.9 µg/mL

GET /value?item= `S=c1[nH]c2cnccc2n1Cc1ccccc1` &field=solubility kinetic returns 5.7 µg/mL

Briefly, solubility kinetic measured for `CC(C)CNCC1OCc2ccccc2CO1.Cl` : > 40.8 µg/mL

Per the record, `CC1CCN(CC(=O)Nc2cccc(Cl)c2)CC1` has solubility kinetic of 39.7 µg/mL

The reported solubility kinetic of the compound `COc1ccccc1CNC(=O)COc1ccc2c(c1)CCC2` was 20.5 µg/mL

Please fill in: solubility kinetic reported for `Cc1c(Cl)c([N+](=O)[O-])nn1CC(=O)NCCCN1CCOCC1` = > 51.9 µg/mL

// field: solubility kinetic; key: `CCN1C(=O)C(=O)N(CC(=O)Nc2cc(C)ccc2C)C1=O` ; value = > 45.5 µg/mL

// recorded solubility kinetic for `C/C(Cl)=C/Cc1c(C)[nH]c2c(ccc3ccccc32)c1=O` : < 0.6 µg/mL

Entry `O=C(NCC(=O)c1ccccc1)OCc1ccc([N+](=O)[O-])cc1` , solubility kinetic reported as 2.5 µg/mL

The recorded solubility kinetic for entry `Cc1cc[n+](CC2OCc3ccccc3CO2)cc1.[Br-]` equals > 50.4 µg/mL

The value of solubility kinetic measured for the compound `CC(=O)NC(=O)COC(=O)c1ccc2ncsc2c1` turned out to be 27.5 µg/mL

get_value(item= `O=C(Cc1ccsc1)Nc1ccc(Cl)cc1Cl` , readout=solubility kinetic) returns 3.8 µg/mL

In plain terms, `O=C(CSc1nnc2ccccn12)NC(=O)c1ccccc1Cl` has a documented solubility kinetic of > 52 µg/mL

Record summary for `NC(=O)c1cc([N+](=O)[O-])ccc1NCCc1ccccc1` : reported solubility kinetic = < 0.2 µg/mL

`O=S(=O)(c1ccccc1)N1CCN(Cc2ccccc2)CC1` yielded solubility kinetic of 0.5 µg/mL

get_value(item= `COc1ccc(NC(=S)NCc2ccc(F)cc2)cc1` , readout=solubility kinetic) returns > 43.6 µg/mL

Entry `Fc1ccccc1OCCn1c(=S)[nH]c2ccccc21` — recorded solubility kinetic = 6 µg/mL

Consider `NC(=O)c1ccc(NC(=O)Nc2ccc3c(c2)OCO3)cc1` . Its measured solubility kinetic is 3.8 µg/mL

---

Conditions: buffer; pH 7.4; 200.0 µM
MEASUREMENT_LABEL: solubility kinetic

compound `O=[N+]([O-])c1cccc(OCc2cn3cccnc3n2)c1` , solubility kinetic observed: > 40.5 µg/mL

get_value(item= CC(=O)c1ccc(NC(=O)COC(=O)C2C3CC4OC(=O)C2C4C3)cc1 (stereo not drawn) , readout=solubility kinetic) returns > 53.6 µg/mL

Quick note, solubility kinetic for `COc1ccc(NC(=O)COC(=O)Cn2cnc3ccccc32)cc1` landed at > 50.9 µg/mL

Kindly note the recorded solubility kinetic for `COC(=O)c1ccc(S(=O)(=O)NCc2ccccc2)n1C` , which is > 46.3 µg/mL

// sample `COCCCNS(=O)(=O)c1ccc2[nH]c(=O)[nH]c2c1` , its solubility kinetic was > 42.8 µg/mL

Entry `CN1C(=O)NC(=O)/C(=C/c2ccc(C(=O)O)cc2)C1=O` — recorded solubility kinetic = > 41.1 µg/mL

Entry `Cc1csc(SCC(=O)NCc2ccccc2)n1` — recorded solubility kinetic = > 41.8 µg/mL

solubility kinetic reading for `Cc1cc(C(=O)OCC(=O)N(C)c2ccccc2)c(C)o1` : > 43.1 µg/mL
